Test: TLR3 IRF3 reporter activation blockers – cell-based, poly I:C stimulus, luciferase, 10K MLSCN set, primary screen (AID 602277)
Details: HEK293-TLR3 RL24 IRF3 luciferase reporter, at 10 µM
The source made the active and inactive calls.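 Rule for the calls: active = inhibition of the reporter signal at or above 50%; inactive = inhibition below 50%.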
Return exactly one item of active, inactive

>  <molecule>
COCCN(C(=O)Cn1nnc2ccccc21)C(C(=O)NC1CCCC1)c1cc(OC)ccc1OC (stereo unspecified)

>  <group_label>
inactive

$$$$

**Query** For COC(=O)Cc1[nH]nc2c1C(C1C=CCCC1)C(C#N)=C(N)O2 (stereo unspecified) , which call appears in the assay record?
**Result** inactive

**Query** For O=C(NCc1ccccn1)Nc1ccc2c(c1)OCO2 , which call appears in the assay record?
**Result** active

**Query** For O=C(c1ccco1)N1CCN(S(=O)(=O)c2ccc(C3CCCCC3)cc2)CC1 , which call appears in the assay record?
**Result** inactive

**Query** For Cc1ccnc(NS(=O)(=O)c2ccc(NC(=O)Cc3cccs3)cc2)n1 , which call appears in the assay record?
**Result** inactive

**Query** For COCCNC(=O)C(c1cccs1)N(C(=O)Cn1nnc2ccccc21)c1ccccc1 (stereo unspecified) , which call appears in the assay record?
**Result** inactive

**Query** For CCOc1ccccc1NC(=O)C1CCCN1C(=O)OCc1ccccc1 (stereo unspecified) , which call appears in the assay record?
**Result** inactive

----------
Assay: endothelial E-selectin expression blockers – imaging, HUVEC, immunofluorescence, MLSMR starter and 10KST1 sets, primary screen (AID 487);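 note: signal is fraction of cell area covered by stained E-selectin grains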
Conditions: HUVEC TNFalpha-induced E-selectin immunofluorescence imaging, at 2 µM
Activity calls are given as the source filed them.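 How the source made its calls: active means visually confirmed hit in the image check and inhibition above 20%; inconclusive means visually confirmed hit but inhibition not above 20%; inactive means no visual hit in the image check.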
Return exactly one item of active, inactive

>  <compound>
CCCS(=O)(=O)N1CCC(C(=O)N2CCCC2)CC1

>  <group_label>
inactive

$$$$
>  <compound>
O=C1c2ccccc2C(=O)N1Cc1nc2ccccc2c(=O)n1CCN1CCOCC1

>  <group_label>
inactive

$$$$
>  <compound>
CCOC(=O)C1CCCN(C(=O)c2ccc3c(=O)n(CCOC)c(=S)[nH]c3c2)C1 (stereo not given)

>  <group_label>
inactive

$$$$

**Query** For COc1cc(C2C(C(=O)c3ccc(C)o3)=C(O)C(=O)N2c2cc(C)on2)cc(Br)c1O (stereo not given) , which call appears in the assay record?
**Result** inactive

**Query** For CSc1cccc(NC(=O)CN(C)S(=O)(=O)c2ccccc2)c1 , which call appears in the assay record?
**Result** inactive

**Query** For C=CCn1cc(C(=O)NCCOC)c(=O)c2cc(S(=O)(=O)N(CC)CC)ccc21 , which call appears in the assay record?
**Result** inactive

**Query** For CCn1c(=N)n(CC(=O)c2ccco2)c2ccccc21 , which call appears in the assay record?
**Result** active

**Query** For CC(=O)Nc1ccc(NC(=O)Cn2cnc3c(cnn3C(C)(C)C)c2=O)cc1 , which call appears in the assay record?
**Result** inactive

**Query** For CCc1nnc(NC(=O)c2ccc(S(=O)(=O)NC3CCCCC3)cc2)s1 , which call appears in the assay record?
**Result** inactive

**Query** For COc1cc2cc(C(c3nnnn3C3CCCC3)N3CCCCCC3)c(=O)[nH]c2cc1OC (stereo not given) , which call appears in the assay record?
**Result** inactive

**Query** For CC1=C(C(=O)N2CCOCC2)C(c2ccccc2F)C2=C(CCCC2=O)N1 (stereo not given) , which call appears in the assay record?
**Result** inactive

**Query** For CCC(C)(C)NC(=O)CN(C(=O)c1snc(C(N)=O)c1N)c1ccc2c(c1)OCO2 , which call appears in the assay record?
**Result** inactive

**Query** For COc1ccc(N(C(=O)c2ccco2)S(=O)(=O)c2cc(OC)ccc2OC)cc1 , which call appears in the assay record?
**Result** inactive

**Query** For c1ccc(Cn2nnnc2CN2CCCC2)cc1 , which call appears in the assay record?
**Result** inactive

**Query** For O=C(c1sc2ccccc2c1Cl)N(Cc1cccs1)C1CCS(=O)(=O)C1 (stereo not given) , which call appears in the assay record?
**Result** inactive

**Query** For c1ccc(-c2nc3ccccc3nc2-c2ccccn2)nc1 , which call appears in the assay record?
**Result** inactive
